Below, each of the compounds is paired with its reported TP53 KO 5.6 pool (AUC) value.
# Tested on: MCF7 TP53 KO 5.6 pool
# assay: Drug screening, resazurin, TP53 KO 5.6 pool
# Format: cell-based, Human
# condition.details: ten-day drug treatment, 156.25 nM to 10 μM, resazurin fluorescence
Where a name gives a salt, the structure may show the parent alone.
readout.label: TP53 KO 5.6 pool (AUC)

| compound | obs.value |
| --- | --- |
| CNNCc1ccc(C(=O)NC(C)C)cc1 [Procarbazine Hydrochloride] | 10.7 |
| CC(C)C[C@H](NC(=O)[C@H](Cc1ccccc1)NC(=O)c1cnccn1)B(O)O | 0.7486 |
| C=CC(=O)N1CCC[C@@H](n2nc(-c3ccc(Oc4ccccc4)cc3)c3c(N)ncnc32)C1 | 5.711 |
